# experimental-target: rhVEGF165-biotin (Homo sapiens)
# Sequence (P15692 27-191 isoform P15692-4): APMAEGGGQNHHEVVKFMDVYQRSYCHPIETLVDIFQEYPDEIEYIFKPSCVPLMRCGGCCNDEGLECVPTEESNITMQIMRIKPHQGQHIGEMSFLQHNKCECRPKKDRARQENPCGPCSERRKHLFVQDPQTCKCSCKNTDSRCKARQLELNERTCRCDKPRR
# measurement-description: VEGF-Binding ELISA (dose-response)
# test-conditions: Table 5; repeats listed
parameter-measured: IC50 (µM)

1) COCCOCCOCC(=O)N1CCC(c2nc(C(=O)Nc3cc(C(N)=O)ccc3OC)cs2)CC1 [Compound 1506-02159]
128
2) COc1ccc(C(N)=O)cc1NC(=O)c1csc(C2CCN(C(=O)N3CCN(c4ccccn4)CC3)CC2)n1 [Compound 1506-08218]
14.8
3) COc1ccc(C(N)=O)cc1NC(=O)c1csc(C2CCN(C(=O)Cc3ccc(SC)cc3)CC2)n1 [Compound 1506-08674]
11
4) COc1ccc(C(N)=O)cc1NC(=O)c1csc(C2CCN(C(=O)c3c(-c4ccccc4)noc3C)CC2)n1 [Compound 1506-00404]
153
5) COc1ccc(C(N)=O)cc1NC(=O)c1csc(C2CCN(C(=O)NCCC3=CCCCC3)CC2)n1 [Compound 1506-07554]
142
6) COc1ccc(C(N)=O)cc1NC(=O)c1csc(C2CCN(C(=O)c3cc(OC)c4ccccc4c3)CC2)n1 [Compound 1506-01810]
136
7) COc1ccc(C(N)=O)cc1NC(=O)c1csc(C2CCN(C(=O)Cc3c[nH]c4ccccc34)CC2)n1 [Compound 1506-00935]
29
8) COc1ccc(C(N)=O)cc1NC(=O)c1csc(C2CCN(C(=O)COc3ccc(C)c(C)c3)CC2)n1 [Compound 1506-03914]
4.5
9) C=CCSc1ncccc1C(=O)N1CCC(c2nc(C(=O)Nc3cc(C(N)=O)ccc3OC)cs2)CC1 [Compound 1506-02331]
6.5

====

# experimental-target: rhVEGF165-biotin (Homo sapiens)
# Sequence (P15692 27-191 isoform P15692-4): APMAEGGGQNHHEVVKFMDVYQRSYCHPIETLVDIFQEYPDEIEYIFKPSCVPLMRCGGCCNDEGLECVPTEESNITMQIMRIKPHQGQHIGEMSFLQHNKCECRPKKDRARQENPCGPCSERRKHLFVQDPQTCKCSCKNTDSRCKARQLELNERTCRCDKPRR
# measurement-description: VEGF-Binding ELISA (dose-response)
# test-conditions: Table 5; repeats listed
pIC50: −log10 of the molar value.
Criterion: pIC50 meeting or surpassing 5. Met: 1. Not met: -1.

1) COc1ccc(C(N)=O)cc1NC(=O)c1csc(C2CCN(C(=O)c3ccc(OC)c(OC)c3OC)CC2)n1
-1
2) COc1ccc(C(N)=O)cc1NC(=O)c1csc(C2CCN(C(=O)c3c(F)cccc3Cl)CC2)n1
-1
3) CC#CCOC(=O)N1CCC(c2nc(C(=O)Nc3cc(C(N)=O)ccc3OC)cs2)CC1
-1
4) COc1ccc(C(N)=O)cc1NC(=O)c1csc(C2CCN(C(=O)Cc3ccc(F)cc3)CC2)n1
-1
5) COc1ccc(C(N)=O)cc1NC(=O)c1csc(C2CCN(C(=O)C#Cc3ccccc3)CC2)n1
1
6) COc1ccc(C(N)=O)cc1NC(=O)c1csc(C2CCN(C(=O)c3ccccc3C(F)(F)F)CC2)n1
1
7) COc1ccc(C(=O)N2CCC(c3nc(C(=O)Nc4cc(C(N)=O)ccc4OC)cs3)CC2)cc1
1
